Taken from patent US20210085640A1.

System: PC-3 prostate cancer cells
assay.notes: Cancer cell survival (CellTiter-Glo), PC-3
Assay type: cell-based
study.conditions: Homo sapiens; PC-3 cells; 1000 μM; 72 h; read-out: Cell survival at given concentration
Entries whose viability at 1000 µM is below 70% take 1.0; entries at or above 70% take 0.0.

Lab note: viability at 1000 µM threshold 70%. Does this compound come in strictly under it? `O=c1cc(-c2ccc(O)c(O)c2)oc2cc(O)cc(O)c12`
1.0

Now the compound Oc1cc(O)c2c(c1)O[C@H](c1cc(O)c(O)c(O)c1)[C@H](O)C2 [EGC, epigallocatechin]
1.0

***
Find out if reported viability at 1000 µM for `O=c1c(O)c(-c2cc(O)c(O)c(O)c2)oc2cc(O)cc(O)c12` is less than 70%
0.0

Repeat for the following compound: `O=C[C@H](O)[C@@H](O)[C@@H](O)CO`
0.0

Now the compound `Oc1ccc(C=Cc2cc(O)cc(O)c2)cc1`
1.0

---

Test system: MCF7 breast cancer cells
assay.notes: Cancer cell survival (CellTiter-Glo), MCF7
Type: cell-based
study.conditions: 72 h, Table 5.1
IC50 for assorted molecules
Please give the number followed by its unit.

Reported IC50, molecule O=c1oc2cc(O)ccc2c2cc(O)c(O)cc12 [urolithin C] : ____
34.7 µM

Others:
Dear colleague, I am looking for the recorded IC50 of the following molecule: O=C(O[C@@H]1Cc2c(O)cc(O)cc2O[C@@H]1c1cc(O)c(O)c(O)c1)c1cc(O)c(O)c(O)c1 [EGCG, epigallocatechin gallate]
231 µM

---

Tested on: A549 lung cancer cells
assay.notes: Cancer cell survival (CellTiter-Glo), A549
Assay type: cell-based
study.conditions: Homo sapiens, 1 μM, 72 h, read-out: Cell survival at given concentration
endpoint: viability at 1 µM (%)
Give just the number in %; leave the unit off.

Consider the worked cases shown below.
Returns the measured viability at 1 µM for the input compound. Input: `O=c1c(O)c(-c2cc(O)c(O)c(O)c2)oc2cc(O)cc(O)c12`
99

Proceed to Oc1cc(O)c2c(c1)O[C@H](c1cc(O)c(O)c(O)c1)[C@H](O)C2 [EGC, epigallocatechin]
100

Try this compound next: `O=c1cc(-c2ccc(O)c(O)c2)oc2cc(O)cc(O)c12`
100

And for `O=C[C@H](O)[C@@H](O)[C@@H](O)CO` ?
104

And then `Oc1ccc(C=Cc2cc(O)cc(O)c2)cc1` , what is it?
98

Okay, next one:
// lookup viability at 1 µM for `O=c1cc(-c2ccc(O)cc2)oc2cc(O)cc(O)c12`
102

---

System: T24 bladder cancer cells
assay.notes: Cancer cell survival (CellTiter-Glo), T24
Assay type: cell-based
study.conditions: 3 μM, 72 h, Table 3.2
endpoint: Cell survival at given concentration
// response body must contain only the number

Example entries and their recorded answers appear below.
Given the entry CCCCC(=O)O [valerate] , what Cell survival at given concentration was observed with T24 bladder cancer cells?
1.01

Continue with CC(O)CCO (stereo not shown)
1.03

CC(=O)O [acetate] , same question.
0.97

Now consider the entry below.
T24 bladder cancer cells / Cell survival at given concentration / CC(O)CC(=O)O (stereo not drawn) [beta-hydroxybutyrate] : value?
1.00

---

System: A549 lung cancer cells
assay.notes: Cancer cell survival (CellTiter-Glo), A549
Assay type: cell-based
study.conditions: 1 μM, 72 h, Table 7.2
Measured Cell survival at given concentration accompanies every entry in the list below.
Could you keep your reply to the number by itself?

Previously resolved entries follow.
Recorded Cell survival at given concentration of CCCCC(=O)O [valerate] , please.
0.98

Another compound: CC(O)CC(=O)O (stereo not drawn) [beta-hydroxybutyrate]
1.00

Request: CC(O)CCO (stereo not shown) [butanediol]
0.95

# next compound below
Any idea what Cell survival at given concentration was measured for CC(=O)O [acetate] ?
1.00
